# ASSAY TEXT: FP purification and fluorescence characterization in vitro (spectra, extinction coefficient, quantum yield)
# Type: physicochemical

>  <MOLECULE>
R5-2: evolved APCα FP, SEQ ID NO: 6, with BV (protein, biliverdin chromophore; smRUFP Variant Polypeptide) MKTCEQRVKIATLLSENEKKIVDKASQDLWRRRPDFIAPGGIAFSQRERALCLRDHRWYLHLITFCLLAGDKDPIESIGLIGIREMYNSLGVPVPGMMESIRCLKEASLSLLDEEDAKETAPYFDYIIKAMS

>  <quantum yield (QY) / %>
5.3

$$$$
>  <MOLECULE>
smURFP: small ultra-red fluorescent protein, SEQ ID NO: 13, homodimer, covalently attaches biliverdin (protein, homodimer; biliverdin chromophore; smRUFP Variant Polypeptide) MKTSEQRVNIATLLTENKKKIVDKASQDLWRRHPDLIAPGGIAFSQRDRALCLRDYGWFLHLITFCLLAGDKGPIESIGLISIREMYNSLGVPVPAMMESIRCLKEASLSLLDEEDANETAPYFDYIIKAMS

>  <quantum yield (QY) / %>
18

$$$$
>  <MOLECULE>
R6-6: evolved APCα FP, SEQ ID NO: 7, with BV (protein, biliverdin chromophore; smRUFP Variant Polypeptide) MKTCEQRVKIATLLSENEKKIVDKASQDLWRRRPDLIAPGGIAFSQRERALCLRDYGWYLHLITFCLLAGDKGPIESIGLIGIREMYNSLGVPVPGMMESIRCLKEASLSLLDEEDAKETAPYFDYIIKAMS

>  <quantum yield (QY) / %>
9.6

$$$$
